MEASUREMENT TARGET: GST-RIPK1 (recombinant GST-RIPK1 kinase domain (residues 1-327)) (Homo sapiens (Human), UniProt Q13546)
Sequence (Q13546 1-327): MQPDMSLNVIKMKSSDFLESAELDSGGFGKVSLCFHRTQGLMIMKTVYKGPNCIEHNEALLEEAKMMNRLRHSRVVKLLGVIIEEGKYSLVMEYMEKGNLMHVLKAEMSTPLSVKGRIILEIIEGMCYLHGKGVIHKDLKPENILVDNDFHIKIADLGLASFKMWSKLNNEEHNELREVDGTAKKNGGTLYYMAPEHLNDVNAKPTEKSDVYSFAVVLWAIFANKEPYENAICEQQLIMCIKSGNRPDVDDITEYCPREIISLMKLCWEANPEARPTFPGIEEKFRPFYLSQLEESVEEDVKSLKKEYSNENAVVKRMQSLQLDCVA
ASSAY NAME: RIPK1-ADP-Glo Enzymatic Assay
COND: 25 nM GST-RIPK1, 300 μM ATP, 3 μM dephosphorylated-MBP, 30 min pre-incubation, 150 min reaction
pEC50: −log10 of the molar value.
PARAMETER: pEC50

Solved entries:
{"columns": ["MOLECULE", "pEC50"],
 "data": [
  ["O=c1n(C23CC(Cl)(C2)C3)nc2n1[C@H](c1cnccn1)CC2", 7.27],
  ["O=c1n(C23CC(F)(C2)C3)nc2n1[C@H](c1cc(F)cc(F)c1)C[C@@H]2O", 7.59],
  ["O=c1n(C23CC(F)(C2)C3)nc2n1[C@H](c1ccc(Cl)c(F)c1)CC2", 7.77]
]}

I: N#CC12CC(n3nc4n(c3=O)[C@H](c3ccccc3)CC4F)(C1)C2 (single isomer, unassigned) [Compound 6-7]
II: O=c1n(C23CC(F)(C2)C3)nc2n1[C@H](c1cccc(Cl)c1)CC2
query: Dear colleague, could you let me know whether I or II has the lower recorded pEC50? Thanks. API: response body contains the label of the selected item.
result: I

a: C#Cc1cccc(C2CCc3nn(C45CC(F)(C4)C5)c(=O)n32)c1 (racemic)
b: N#CC12CC(n3nc4n(c3=O)[C@H](c3cc(F)cc(F)c3)CCC4)(C1)C2
query: Choose between a and b : whose measured pEC50 value is numerically larger? API: response body contains the label of the selected item.
result: b
(b: 6.96, a: 6.31)
